# System: Pr. mirabilis 525
# assayOverview: In vitro antibacterial activity, two-fold agar-plate dilution method (MIC), Pr. mirabilis 525
# Format: cell-based
# settings: Proteus mirabilis; Pr. mirabilis 525; HI-agar, 37° C., 20 hours; 10^8 viable cells per ml; read-out: minimal inhibitory concentration (MIC)
# key: entry, value: MIC

>  <compound>
Cn1nnnc1SCC1=C(C(=O)O)N2C(=O)C(NC(=O)/C(=N\O)c3cccc(O)c3)C2SC1 (stereo not shown) [Test Compound (2)]

>  <MIC (µg/mL)>
1.56

$$$$
>  <compound>
Cc1nnc(SCC2=C(C(=O)O)N3C(=O)C(NC(=O)/C(=N\O)c4ccccc4)C3SC2)s1 (stereo not shown) [Test Compound (A), reference compound]

>  <MIC (µg/mL)>
25

$$$$
>  <compound>
CC(=O)OCC1=C(C(=O)O)N2C(=O)C(NC(=O)/C(=N\O)c3ccc(O)c(Cl)c3)C2SC1 (stereo not shown) [Test Compound (3)]

>  <MIC (µg/mL)>
0.39

$$$$
>  <compound>
Cn1nnnc1SCC1=C(C(=O)O)N2C(=O)C(NC(=O)/C(=N\OC(=O)c3ccccc3)c3cccc(O)c3)C2SC1 (stereo not shown) [Test Compound (6)]

>  <MIC (µg/mL)>
0.78

$$$$
>  <compound>
Cc1nnc(SCC2=C(C(=O)O)N3C(=O)C(NC(=O)/C(=N\O)c4cccc(O)c4)C3SC2)s1 (stereo not shown) [Test Compound (5)]

>  <MIC (µg/mL)>
3.13

$$$$
>  <compound>
O=C(O)C1=C(CSc2nncs2)CSC2C(NC(=O)/C(=N\O)c3cccc(O)c3)C(=O)N12 (stereo not shown) [Test Compound (4)]

>  <MIC (µg/mL)>
1.56

$$$$
>  <compound>
Cn1nnnc1SCC1=C(C(=O)O)N2C(=O)C(NC(=O)/C(=N\O)c3ccc(O)c([N+](=O)[O-])c3)C2SC1 (stereo not shown) [Test Compound (10)]

>  <MIC (µg/mL)>
0.2

$$$$
>  <compound>
NC(=O)OCC1=C(C(=O)O)N2C(=O)C(NC(=O)/C(=N\O)c3cccc(O)c3)C2SC1 (stereo not shown) [Test Compound (9)]

>  <MIC (µg/mL)>
0.78

$$$$
>  <compound>
CCOC(=O)O/N=C(\C(=O)NC1C(=O)N2C(C(=O)O)=C(CSc3nnnn3C)CSC12)c1cccc(O)c1 (stereo not shown) [Test Compound (7)]

>  <MIC (µg/mL)>
0.39

$$$$
>  <compound>
Cn1nnnc1SCC1=C(C(=O)O)N2C(=O)C(NC(=O)/C(=N\O)c3ccc(O)cc3)C2SC1 (stereo not shown) [Test Compound (1)]

>  <MIC (µg/mL)>
1.56

$$$$
